- targetOfAssay: DNA gyrase (Staphylococcus aureus) (UniProt P0A0K8+P20831)
- assayProtocol: In vitro antibacterial activity against gram-positive organism Staphylococcus aureus NCTC-10649M
- Assay type: functional
measurementType: MIC (µg/mL)

Cc1c(N2CCC(c3ccccn3)C2)c(F)cn2c(=O)c(C(=O)O)cc(C3CC3)c12 (stereo not drawn)    0.02
Cc1c(N2CC[C@@H](O)C2)c(F)cn2c(=O)c(C(=O)O)cc(C3CC3)c12    0.02
Cc1c(N2C[C@@H](N)C[C@H]2C)c(F)cn2c(=O)c(C(=O)O)cc(C3CC3)c12    0.02

----------
- assayProtocol: In vitro antibacterial activity against gram-negative organism Pseudomonas aeruginosa 5007
- Assay type: functional
- conditionInfo: Pseudomonas aeruginosa; read-out: MIC
measurementType: MIC (µg/mL)

COc1c(N2CCC(N)C2)c(F)cn2c(=O)c(C(=O)O)cc(C3CC3)c12 (configuration not stated)    0.39

[P] NC1CCN(c2c(F)cn3c(=O)c(C(=O)O)cc(C4CC4)c3c2Cl)C1 (configuration not stated)
[Q] NC1CCN(c2nc3c(-c4c(F)c(F)c(F)c(F)c4F)cc(C(=O)O)c(=O)n3cc2F)C1 (configuration not stated)
Task: Name the one with the greater MIC value, either P or Q as given. Give the label of your selection.
Result: Q

[A] Cc1c(NCCN)c(F)cn2c(=O)c(C(=O)O)cc(C3CC3)c12
[B] C[C@H]1C[C@H](N)CN1c1nc2c(-c3ccc(F)cc3F)cc(C(=O)O)c(=O)n2cc1F
Task: Name the one with the greater MIC value, either A or B as given. Give the label of your selection.
Result: A

----------
- System: Enterococcus faecium
- assayProtocol: Inhibitory activity against enterococcus faecium Van A
- Assay type: functional
measurementType: MIC (µg/mL)

Cc1c(N2C[C@@H]3CCCN[C@@H]3C2)c(F)cn2c(=O)c(C(=O)O)cc(C3CC3)c12 (stereo in doubt; 45n)    0.5
CNC1CCN(c2c(F)cn3c(=O)c(C(=O)O)cc(C4CC4)c3c2C)C1 (stereo not drawn)    0.5
Cc1c(N2CCC(n3cccc3)C2)c(F)cn2c(=O)c(C(=O)O)cc(C3CC3)c12 (stereo not drawn)    0.5

----------
- targetOfAssay: DNA gyrase (Escherichia coli) (UniProt P0AES6+P0AES4)
- assayProtocol: In vivo efficacy against Escherichia coli JUHL by subcutaneous administration
- Format: functional, organism-based
- conditionInfo: Escherichia coli K-12
measurementType: ED50 (mg/kg)

[a] Cc1c(N2C[C@@H]3[C@@H](N)[C@@H]3C2)c(F)cn2c(=O)c(C(=O)O)cc(C3CC3)c12
[b] Cc1c(N2CCC(N)C2)c(F)cn2c(=O)c(C(=O)O)cc(C3CC3)c12 (stereo not drawn)
[c] Cc1c(N2CC[C@H](N)C2)c(F)cn2c(=O)c(C(=O)O)cc(C3CC3)c12
Task: Put the above entries in order of falling ED50. Sort the labels as requested; that list is your answer.
Result: a, b, c

----------
- targetOfAssay: DNA gyrase (Escherichia coli) (UniProt P0AES6+P0AES4)
- assayProtocol: In vitro antibacterial activity against gram-positive organism Enterococcus faecium ATCC 8043
- Format: functional
measurementType: MIC (µg/mL)

Cc1c(N2CCC(C)(N)C2)c(F)cn2c(=O)c(C(=O)O)cc(C3CC3)c12 (stereo not given)    0.1

[a] Cc1c(N2C[C@@H](N)C[C@@H]2C)c(F)cn2c(=O)c(C(=O)O)cc(C3CC3)c12
[b] Cc1c(N2CC[C@H](O)C2)c(F)cn2c(=O)c(C(=O)O)cc(C3CC3)c12
[c] Cc1c(N(C)CCN)c(F)cn2c(=O)c(C(=O)O)cc(C3CC3)c12
Task: Please put the entries in order of rising MIC. Sort the labels as requested; that list is your answer.
Result: b, a, c

----------
Measured ED50, listed per entry for reference.
- targetOfAssay: DNA gyrase (Staphylococcus aureus) (UniProt P0A0K8+P20831)
- assayProtocol: In vivo efficacy against Staphylococcus aureus NCTC-10649M after oral administration
- Assay type: functional, organism-based

Worked examples, 2 compounds total:
CNC1CCN(c2c(F)cn3c(=O)c(C(=O)O)cc(C4CC4)c3c2C)C1 (stereo not drawn)    < 3.1 mg/kg
Cc1c(N2CC[C@@H](N)C2)c(F)cn2c(=O)c(C(=O)O)cc(C3CC3)c12    < 3.1 mg/kg

Consider the record given below.
Task: May I ask what ED50 has been recorded for NC1CCN(c2nc3c(C4CC4)cc(C(=O)O)c(=O)n3cc2F)C1 (stereo not drawn) ?
Result: > 12 mg/kg

----------
- targetOfAssay: DNA gyrase (Escherichia coli) (UniProt P0AES6+P0AES4)
- assayProtocol: In vivo efficacy against Escherichia coli JUHL by subcutaneous administration
- Format: functional, organism-based
- conditionInfo: Escherichia coli K-12
measurementType: ED50 (mg/kg)

Cc1c(N2C[C@@H]3CCN[C@@H]3C2)c(F)cn2c(=O)c(C(=O)O)cc(C3CC3)c12 (stereo in doubt; 45o)    0.4

[A] Cc1c(N2CC[C@@H]([C@@H](C)N)C2)c(F)cn2c(=O)c(C(=O)O)cc(C3CC3)c12
[B] NC1CCN(c2nc3c(C4CC4)cc(C(=O)O)c(=O)n3cc2F)C1 (stereo not given)
Task: Select the item whose ED50 value is smaller, choosing between A and B . Give the label of your selection.
Result: A
(A: 0.5 mg/kg, B: 1 mg/kg)
